B1: Myocardin, residues 363 to 406; numbered along this chain, Q8IZQ8 (parent)
chain: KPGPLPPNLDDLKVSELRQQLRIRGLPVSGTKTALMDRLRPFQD

# Variants of: B1
# EXPERIMENT_NOTES: abundance fitness (aPCA) (normalised: wild type 0, dead -1); higher = more abundant; growth selection in yeast, the domain comes from the species named
# SETUP_CONDITIONS: Homo sapiens
PARAMETER_MEASURED: abundance fitness
Answers are plain numbers.

As a guide, the following entries are already answered.
RESIDUE_STRING	VALUE_REPORTED
KPGPLPPLLDDLKVSELRQQLRIRGLPVSGTKTALMDRLRPFQD	-0.35
KPGPLPPNLDDLKVSELRQQLRIRGLPVSGTKTALMDRLRPQQD	-0.06
KPGPLPPNLDDLKVTELRQQLRIRGLPVSGTKTALMDRLRPFQD	0.071

Fill in abundance fitness for each of the 4 variants listed.
1. KPGPLPPNLDDLKVSELLQQLRIRGLPVSGTKTALMDRLRPFQD
2. KPGPLPPNLDDLKVSELRQQLRYRGLPVSGTKTALMDRLRPFQD
3. KPGPLPPNLDDLKVSELRQQLRIRGLPVSGTKTALMCRLRPFQD
4. KPGPLPPNLDDLKVSTLRQQLRIRGLPVSGTKTALMDRLRPFQD

# output
-0.44
0.013
-0.39
-0.515

Give me abundance fitness for each of these variants, listed below.
1. KPGPLPPNLDDLKVSELRQQLRIRGLPVSGTKTALMDRLRPHQD
2. KPGPLPPNLDDLKVSELRQQLRIRGLPVSGTKTALMDRSRPFQD

# output
1. 0.139
2. -0.601

Would you mind listing abundance fitness for each of the following variants?
1. KPGPLLPNLDDLKVSELRQQLRIRGLPVSGTKTALMDRLRPFQD
2. KPGPLPQNLDDLKVSELRQQLRIRGLPVSGTKTALMDRLRPFQD
3. KPGPLPPNLDDLKVSELRQQLRIRGLPVSGTKTALMDRLRCFQD
4. KPGPLPPNMDDLKVSELRQQLRIRGLPVSGTKTALMDRLRPFQD
5. KPGPLPPNLDDLKVSELRQQLRIRGLPVHGTKTALMDRLRPFQD

# output
1. -0.26
2. 0.266
3. -0.151
4. -0.543
5. -0.108

Give one value of abundance fitness per listed variant.
1. KPGPLPPNLDDLKVSELRQQLRIRGLPVSGKKTALMDRLRPFQD
2. KPGPLPPNLDDLKVSELRQQLRIRGLPVSGTMTALMDRLRPFQD
3. KPGPLPVNLDDLKVSELRQQLRIRGLPVSGTKTALMDRLRPFQD
4. KPGPLPPNLDDLKVSELRQQLRIRGLPVSGTKTALMDRLRPFAD

# output
-0.217
-0.696
0.227
-0.042

src = the Human Domainome abundance scans (Beltran et al. 2025)
